# assay-target: Metabotropic glutamate receptor 8 (Rattus norvegicus) (UniProt P70579)
# Sequence (P70579 whole entry, looked up): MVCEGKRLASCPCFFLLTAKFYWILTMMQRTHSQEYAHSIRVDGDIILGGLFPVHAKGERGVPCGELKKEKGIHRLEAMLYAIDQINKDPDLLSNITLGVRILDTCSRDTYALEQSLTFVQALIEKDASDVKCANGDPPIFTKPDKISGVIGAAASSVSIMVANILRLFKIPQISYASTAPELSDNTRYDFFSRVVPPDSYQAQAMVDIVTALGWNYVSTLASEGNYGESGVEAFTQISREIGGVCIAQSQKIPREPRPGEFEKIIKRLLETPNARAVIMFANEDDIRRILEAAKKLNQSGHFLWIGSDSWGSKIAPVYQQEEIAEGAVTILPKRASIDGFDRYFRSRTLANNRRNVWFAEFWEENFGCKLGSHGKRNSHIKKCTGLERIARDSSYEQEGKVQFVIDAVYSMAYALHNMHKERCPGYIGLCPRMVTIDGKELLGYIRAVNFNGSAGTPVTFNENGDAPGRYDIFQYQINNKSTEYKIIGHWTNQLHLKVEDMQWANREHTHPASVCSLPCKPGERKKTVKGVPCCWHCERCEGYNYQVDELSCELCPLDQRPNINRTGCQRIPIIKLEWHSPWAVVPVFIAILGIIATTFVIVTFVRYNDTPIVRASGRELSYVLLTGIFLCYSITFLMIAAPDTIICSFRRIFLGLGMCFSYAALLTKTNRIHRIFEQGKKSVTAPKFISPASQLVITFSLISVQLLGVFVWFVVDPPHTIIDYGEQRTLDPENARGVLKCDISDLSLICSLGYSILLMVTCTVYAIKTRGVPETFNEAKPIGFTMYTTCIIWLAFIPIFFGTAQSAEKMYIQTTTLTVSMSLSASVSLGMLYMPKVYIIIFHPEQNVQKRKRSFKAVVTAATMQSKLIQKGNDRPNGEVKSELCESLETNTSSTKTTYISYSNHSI
# test-protocol: mGluR8 Gi/Go-coupled signaling modulation – cell-based, rat, thallium flux, HTS, primary screen (AID 488969)
# condition-parameters: HEK293 rat mGluR8, GIRK (G protein-gated inwardly rectifying potassium channel) thallium flux, FluoZin2; at 10 µM; stronger effect = higher value; submaximal glutamate (EC20) added with thallium
The full ranking holds about 110,000 compounds; the median of “z-score” is about -0.1, and the highest 2% start at about 2. The sample as a whole holds a higher share of the highest values than the screen did.
outcome-measure: z-score
The answer should be written as a number, with no unit following it.

query: Dear colleague, I am looking for the recorded z-score of the following compound: `CCCCNS(=O)(=O)c1ccc2c(c1)oc(=O)n2CC(=O)OCC`
result: 0.0209

query: Give the measured z-score of `COc1ccc(NC(=S)NNC(=O)c2ccccc2OC(F)F)cc1` .
result: 0.204

query: Field request: z-score | item: `CCOC(=O)Nc1ccc(OC)cc1S(=O)(=O)N1CCCCC1`
result: 0.612

query: Which value of z-score has been reported for CS(=O)(=O)NCC(c1cccnc1)N1CCN(c2ccc(F)cc2)CC1 (stereo unspecified) in the records?
result: -0.636

query: Return reported z-score; argument: `CCn1c(=NC(=O)CSC(C)=O)sc2cc(F)ccc21`
result: 0.658

query: Fill in: z-score of `CCc1nnc(NC(=O)CSc2nc(-c3ccccc3)cc(-c3ccc(F)cc3)c2C#N)s1` is ___
result: -0.163

query: GET /values?readout=z-score&item= `O=C(Oc1ccc([N+](=O)[O-])cc1)c1cccnc1`
result: -0.0965

query: z-score lookup needed for CC(NS(=O)(=O)c1ccccc1)C(=O)Nc1ccc(S(N)(=O)=O)cc1 (stereo unspecified) , thanks.
result: 0.246

query: Which z-score value is on record for `CN1C(=O)COc2ccc(C(=O)c3oc4ccccc4c3-c3cnc4c(c3)COc3ccccc3-4)cc21` ?
result: -0.142

query: Which value of z-score has been reported for `COc1ccc(OC)c(N2Cc3cc(C)c(C)cc3C2)c1` in the records?
result: 0.286

query: Field request: z-score | item: `COC(=O)CSc1nc2nc(C)cc(C)n2n1`
result: -0.251

query: Report z-score for `CCN(CC)c1ccc(NS(=O)(=O)c2ccc3c(c2)oc(=O)n3C)c(C)c1` please.
result: 0.308

query: Which z-score reading was recorded for the compound CCCS(=O)(=O)N1CCCC(c2nc(-c3ccc(OC)cc3)no2)C1 (stereo unspecified) ?
result: 0.0798

query: Quick one: z-score of `CCC(=O)N1CCN(c2nc3ccccc3s2)CC1` ?
result: -0.0557

query: Quick one: z-score of `COc1cc(/C=C/C(=O)OCC(=O)Nc2ccc(C)c(S(=O)(=O)N3CCCCC3)c2)ccc1O` ?
result: -0.427

query: If you can, please state the reported z-score value of O=C(COC(=O)C1CC2C=CC1C2)Nc1ccc2c(c1)OC(F)(F)O2 (stereo unspecified) .
result: 4.04

query: Requested field: z-score. Item: `O=S(=O)(c1ccc(Cl)c(F)c1)N1CCC(c2nc(-c3ccncc3)no2)CC1`
result: 8.06

query: What z-score value was documented for this compound, `Cc1ccc(S(=O)(=O)N2CCCCC2)cc1NC(=O)COC(=O)c1cc[n+]([O-])cc1` ?
result: -0.223

query: z-score for `Cc1cc(C)n2nc(C(=O)OCC(=O)Nc3ccc4c(c3)OC(F)(F)O4)nc2n1` ?
result: -0.0308

query: I have this compound here, `Cc1ccc(-c2n[nH]c(=S)n2Cc2ccccc2)cc1` , and I need its recorded z-score.
result: -0.277

query: Need z-score, item `CCn1cnc2cc(NCc3nc4ccccc4n3Cc3ccccc3)ccc21`
result: -0.34

query: Give the measured z-score of `Cc1ccc(NC(=S)N/N=C/c2ccc(OCCC(C)C)cc2)c(C)c1` .
result: 0.599

query: Form field: reported z-score of `Cc1ccc(S(=O)(=O)N2CCCCC2)cc1NC(=O)COC(=O)Cc1ccc(Cl)cc1`
result: -0.0868

query: Which value of z-score has been reported for Cc1ccc(NC(=O)COC(=O)C2CC2C)c(S(=O)(=O)N2CCCCC2)c1 (stereo unspecified) in the records?
result: 2.07

query: Report z-score for `CCn1c(=NC(=O)CSC(C)=O)sc2cc(OC)ccc21` please.
result: 0.477

query: Fill in the blank: the reported z-score of `Cc1ccc(C)c(/C=N/NC(=S)NCCc2ccccc2)c1` is ____.
result: 1.17

query: # lookup: z-score of `COc1ccc(/C=N/NC(=O)C[n+]2ccccc2)c(OC)c1OC`
result: -0.273

query: # z-score lookup, item `Cc1ccc(NC(=S)N/N=C/c2c(Cl)cccc2Cl)c(C)c1`
result: 9.31

query: If you can, please state the reported z-score value of Cc1c(NC(=O)C(C)Sc2nnc(-c3ccccc3)o2)c(=O)n(-c2ccccc2)n1C (stereo unspecified) .
result: -0.308

query: GET /values?readout=z-score&item= `CCOC(=O)Cn1c(=O)oc2cc(S(=O)(=O)NCCCc3ccccc3)ccc21`
result: 3.36

query: Give its z-score value. Item: `CCn1c(=NC(=O)CSC(C)=O)sc2ccccc21`
result: 3.49

query: Please look up its z-score: `S=C(NCCc1ccccc1)N/N=C/c1c(Cl)cccc1Cl`
result: 0.353

query: Name the recorded z-score for `COc1ccccc1NC(=O)c1cccc(NC(=O)c2ccco2)c1` .
result: -0.669

query: Need z-score of `COc1cccc(CNC(=O)Cc2nc3nc(C)cc(C)n3n2)c1` , thanks.
result: -0.187

query: So what's the measured z-score for this one? `Clc1cccc(-c2cc3nc4c(c(N5CCNCC5)n3n2)CCCC4)c1`
result: 2.71

query: Any idea what z-score was measured for CC(C)c1ccc(-c2noc(C3CCCN(S(C)(=O)=O)C3)n2)cc1 (stereo unspecified) ?
result: 5.82
